assay_text: small-molecule microarray binders of probe aDKK1, primary screen, biochemical, biotinylated probe, 635/667 nm fluorescence (AID 1099);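 also: score merges 667nm spot fluorescence with signal to noise across triplicate slides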
protocol_conditions: higher = more signal
value_kind: composite z-score

{"columns": ["structure_notation", "composite z-score"],
 "data": [
  ["C[C@@]1([C@@H](NC(=O)c2ccccc2)c2ccc(-c3ccccc3)cc2)C[C@H]1C1CCCCC1", 1.18],
  ["CC(C)(C)OC(=O)CC[C@@]1(C(N)=O)N=C(c2ccc(OCCCO)cc2)O[C@@H]1c1ccccc1", 0.307],
  ["C=CCOC(=O)[C@H]1[C@@H]2C(=O)O[C@@H](c3ccccc3)[C@@H](c3ccccc3)N2[C@@H](c2ccc(OCCOC(=O)[C@H]3C[C@H]4C(=O)N5CCC[C@H]5C(=O)N4[C@H]3c3ccc(O)cc3)cc2)[C@]12C(=O)Nc1ccc(I)cc12", 1.76]
]}

Entry `COC(=O)[C@@]1(Cc2ccc(OC)cc2)[C@H]2c3cc(C(=O)N4CCCC4)n(Cc4ccc(OC)c(OC)c4)c3C[C@H]2CN1C(=O)c1ccccc1` needs its composite z-score filled in; supply it.
1.56

Entry `CCOC(=O)C[C@H]1[C@H](OC(=O)c2cc3ccccc3oc2=O)[C@@H](NC(=O)Cc2ccc(OC)cc2)c2cc(OCCCO)ccc2N1C(=O)c1ccccc1` needs its composite z-score filled in; supply it.
-0.351

###

subject_of_test: NADPH oxidase 2 (Homo sapiens) (UniProt P04839)
Sequence (P04839 whole entry, looked up): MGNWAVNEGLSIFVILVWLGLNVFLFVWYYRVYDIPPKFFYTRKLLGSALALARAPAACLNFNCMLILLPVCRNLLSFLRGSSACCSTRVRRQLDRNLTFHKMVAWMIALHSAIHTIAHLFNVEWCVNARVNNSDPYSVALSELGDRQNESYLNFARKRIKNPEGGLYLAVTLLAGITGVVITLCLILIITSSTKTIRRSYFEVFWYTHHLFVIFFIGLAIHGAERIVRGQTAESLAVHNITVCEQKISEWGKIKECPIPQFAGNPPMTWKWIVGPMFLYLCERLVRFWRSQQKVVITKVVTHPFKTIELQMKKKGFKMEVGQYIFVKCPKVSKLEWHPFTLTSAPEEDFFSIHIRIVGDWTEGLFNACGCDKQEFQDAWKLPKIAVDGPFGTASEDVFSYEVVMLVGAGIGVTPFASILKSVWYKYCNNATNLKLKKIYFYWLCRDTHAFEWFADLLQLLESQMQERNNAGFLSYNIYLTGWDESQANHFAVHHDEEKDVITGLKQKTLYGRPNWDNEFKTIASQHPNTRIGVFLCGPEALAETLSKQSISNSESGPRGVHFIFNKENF
assay_text: NOX2-dependent H2O2 signal modulators, primary screen, NOX inhibitor project, cell-based, HEK293-NOX2, PMA-stimulated, Amplex Red fluorescence (AID 1159); also: test concentration not given here
protocol_conditions: 45 min, higher = more signal, called active from +8 up or from −8 down
value_kind: z-score
Quick one: just the number, no unit, thanks!

Reference set (4 entries):
{"columns": ["compound", "value_kind", "endpoint_result"],
 "data": [
  ["CC(C)(C)OC(=O)CC[C@]1(C(=O)O)N=C(c2ccc(OCCCO)cc2)O[C@H]1c1ccccc1N=[N+]=[N-]", "z-score", 0.7],
  ["COC(=O)[C@@]1(Cc2ccc(F)cc2)[C@@H]2[C@@H](CC(=O)[C@H]2CC(=O)C(=O)N(C)C)CN1C(=O)c1ccccc1", "z-score", 0.366],
  ["CC(C)(C)OC(=O)CC[C@@]12N=C(c3ccc(OCCCO)cc3)O[C@@H]1c1ccccc1N(CCS(=O)(=O)c1ccccc1)C2=O", "z-score", -0.619],
  ["O=C1C2C=CC(C(O)C(c3ccccc3)c3ccccc3)N(n3cnnc3)C2C(=O)N1Cc1ccccc1 (stereo unspecified)", "z-score", 0.67]
]}

Retrieve z-score on NADPH oxidase 2 (Homo sapiens) (UniProt P04839); query `COCCOC(=O)N1C(=O)[C@@]2(c3cc(C#CCCO)ccc31)[C@H](c1ccc(OCCO)cc1)N1[C@H](c3ccccc3)[C@H](c3ccccc3)OC(=O)[C@H]1[C@@H]2C(=O)N1CCN(c2ncccn2)CC1`
1.89

Retrieve z-score on NADPH oxidase 2 (Homo sapiens) (UniProt P04839); query `C=CCNC(=O)[C@@H]1[C@H]2C(=O)O[C@H](c3ccccc3)[C@H](c3ccccc3)N2[C@H](c2ccc(OCCO)cc2)[C@@]12C(=O)Nc1ccc(C#Cc3ccc(OC)cc3)cc12`
1.04

###

subject_of_test: Alpha-bungarotoxin (Bungarus multicinctus) (UniProt P60615)
Sequence (P60615 whole entry, looked up): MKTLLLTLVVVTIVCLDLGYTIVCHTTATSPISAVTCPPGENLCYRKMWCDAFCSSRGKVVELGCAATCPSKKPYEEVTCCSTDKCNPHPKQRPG
assay_text: alpha-bungarotoxin binders on microarray, profiling panel, artefact control for SMM control protein annotation, biochemical, small-molecule microarray, Alexa647 label, 635/667 nm fluorescence (AID 1117)
protocol_conditions: alpha-BTX-A647 binding fluorescence, higher = more signal
Binary call on composite z-score: met from 0.9 upward, not met beneath that.

The following molecules have reported results that may help.
{"columns": ["molecule", "assigned_label"],
 "data": [
  ["COc1ccc([Si](C)(C)[C@H]2[C@H](CCO)O[C@@]3(C(=O)N(Cc4ccc(N5C(=O)COc6ccccc65)cc4)c4ccccc43)[C@@H]2C)cc1", "not met"],
  ["C=CCOC(=O)[C@H]1[C@@H]2C(=O)O[C@@H](c3ccccc3)[C@@H](c3ccccc3)N2[C@@H](c2ccc(OCCOC(=O)[C@H]3C[C@H]4C(=O)N5CCC[C@H]5C(=O)N4[C@H]3c3ccc(O)cc3)cc2)[C@]12C(=O)Nc1ccc(I)cc12", "met"],
  ["COC(=O)[C@@]1(Cc2ccc(OC)cc2)[C@H]2c3cc(C(=O)N4CCCC4)n(Cc4ccsc4Br)c3C[C@H]2CN1C(=O)c1ccccc1", "not met"],
  ["O=C1c2ccccc2[C@](Cc2ccccc2I)(C(=O)NC2CC2)[C@H](c2ccc(CO)cc2)N1Cc1ccccc1", "not met"],
  ["CC(=O)N1Cc2ccccc2C[C@@]2(COC(c3ccc(OCCCO)cc3)=N2)C1=O", "met"],
  ["O=C1NC(=O)C2C1C=CC(C(O)C(c1ccccc1)c1ccccc1)N2Nc1ccc(Cl)cc1Cl (centres undefined)", "not met"]
]}

// inclusive: composite z-score at least 0.9? input: `CCc1oc(CC[C@@H](CO)NC(=O)NCCn2cc(C3(O)CCCCC3)nn2)c(C(=O)OC)c1C(=O)OC`
not met

// inclusive: composite z-score at least 0.9? input: `CC(C)(C)OC(=O)CC[C@]1(C(=O)O)N=C(c2ccc(OCCCO)cc2)O[C@H]1c1ccccc1N=[N+]=[N-]`
met

###

assay_text: MM1S cell viability effects, profiling panel, calcein-AM fluorescence, 48 h, basal (AID 1165);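 also: viability of MM1S multiple myeloma cells under basal unstimulated conditions; test concentration not given here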
protocol_conditions: higher = more signal
Binary call on z-score: TRUE from -3 upward, FALSE beneath that.

{"columns": ["structure_notation", "assigned_label"],
 "data": [
  ["COC(=O)c1c(CC[C@@H](CO)NC(=O)N[C@H](Cn2cc(Cc3ccccc3)nn2)C(C)C)oc(C(C)=O)c1C(=O)OC", "TRUE"],
  ["C=C[C@H](COC(C)=O)N(C(=O)OC(C)(C)C)S(=O)(=O)c1ccc(Br)cc1", "TRUE"],
  ["Cc1ccc(S[C@]2(C(=O)NCC(F)(F)F)CC(=O)N(C(C)C)[C@@H]2c2ccc(CO)cc2I)cc1", "TRUE"]
]}

Turning now to a further record.
// inclusive: z-score at least -3? input: `COC(=O)[C@@]1(Cc2ccc(OC)cc2)[C@H]2c3cc(C(=O)N4CCCC4)n(Cc4ccsc4Br)c3C[C@H]2CN1C(=O)c1ccccc1`
FALSE

###

assay_text: splicing luciferase reporter signal modulators, primary screen, spliceosome inhibition project, cell-based, HEK293, splice +/- reporter (AID 1101);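 also: HEK293 cells carrying a splicing-competent luciferase reporter gene; test concentration not given here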
protocol_conditions: luminescence, 24 h, higher = more signal, called active from +8 up or from −8 down
value_kind: z-score
Quick one: just the number, no unit, thanks!

Reference set (3 entries):
{"columns": ["compound", "endpoint_result"],
 "data": [
  ["CCCCN1CC=CC23O[C@@H]4/C=C\\CCC(C)OC(=O)C4[C@H]2C(=O)N(CCCCCO)[C@@H]3C1=O (stereo not given in full)", -0.259],
  ["COC(=O)[C@@]1(Cc2ccc(F)cc2)[C@H]2c3cc(C(=O)N4CCCC4)n(Cc4ccc(C)o4)c3C[C@H]2CN1C(=O)c1ccccc1", 3.29],
  ["CN(C)CCCCCCNC(=O)[C@@H]1C[C@@H]2C(=O)N[C@@H](CCCCN)C(=O)N2[C@@H]1c1cccc(OCCO)c1", -1.56]
]}

Entry CN1C(=O)C2C=CC(C(O)C3CCCCC3)N(Nc3ccc([N+](=O)[O-])cc3[N+](=O)[O-])C2C1=O (stereo not given) needs its z-score filled in; supply it.
1.84

Entry `COC(=O)[C@@]1(Cc2ccc(F)cc2)[C@@H]2[C@@H](CC(=O)[C@H]2CC(=O)C(=O)N(C)C)CN1C(=O)c1ccccc1` needs its z-score filled in; supply it.
-0.191

###

assay_text: basal MM1S mitochondrial membrane potential changes, profiling panel, cell-based, JC-1 fluorescence, 24 h, 100 nL compound (AID 1170); also: test concentration not given here
protocol_conditions: higher = more signal
value_kind: z-score
Quick one: just the number, no unit, thanks!

Reference set (3 entries):
{"columns": ["structure_notation", "endpoint_result"],
 "data": [
  ["CC(C)C[C@@H]1NC(=O)[C@@H]2C[C@H](C(=O)NCCCCCN)[C@H](c3cccc(OCCO)c3)N2C1=O", -0.495],
  ["CCOC(=O)[C@H]1C/C=C/C[C@H](C(=O)OCC)C(=O)O[C@H]2[C@@H](OC)O[C@H](CO)[C@@H](OC(=O)Nc3cccc(F)c3)[C@@H]2OC1=O", -1.99],
  ["CCCN1C(=O)[C@]2(CCS(=O)(=O)c3ccccc3)N=C(c3ccc(OCCCO)cc3)O[C@@H]2c2ccccc21", -1.28]
]}

Entry `O=C(NCC(F)(F)F)[C@@H]1c2ccccc2C(=O)N(C2CCCCC2)[C@H]1c1ccc(CO)cc1` needs its z-score filled in; supply it.
1.67
